Data origin, for the record: patent US9567302B2

I'd be grateful if you could share measured IC50 for these entries.
targetOrSystem: ABHD6 (Mus musculus)
assayDetails: In vitro competitive activity-based protein profiling (FP-Rh), mouse ABHD6
Type: biochemical
Set-up: from tissue; host or cells: mouse brain membrane fraction
conditions: Table 1, mouse proteome, 30 min preincubation at 37° C.

IN: Which IC50 value is on record for COc1ccc(N2CCN(C(=O)ON3C(=O)NC(C(C)C)C3=O)CC2)cc1 (centres unmarked) ?
OUT: < 100 nM

IN: Which IC50 value is on record for CCCN(Cc1ccc(N2CCCCC2)cc1)C(=O)ON1C(=O)CCC1=O ?
OUT: > 10000 nM

IN: Which IC50 value is on record for O=C(ON1C(=O)c2ccccc2C1=O)N1CCN(C(c2ccc(Cl)cc2)c2ccc(Cl)cc2)CC1 ?
OUT: 100 to 1000 nM

IN: Which IC50 value is on record for O=C(ON1C(=O)C2CCCCC2C1=O)N1CCN(C(c2ccc(Cl)cc2)c2ccc(Cl)cc2)CC1 (centres unmarked) ?
OUT: 100 to 1000 nM

IN: Which IC50 value is on record for O=C(ON1C(=O)CC(c2ccccc2)C1=O)N1CCN(C(c2ccc(Cl)cc2)c2ccc(Cl)cc2)CC1 (centres unmarked) ?
OUT: 1000 to 10000 nM

IN: Which IC50 value is on record for CN1CC(=O)N(OC(=O)N2CCC(CCc3ccc(Cl)cc3)CC2)C1=O ?
OUT: < 100 nM

IN: Which IC50 value is on record for COc1ccc(N2CCN(C(=O)ON3C(=O)CC(C)(C)C3=O)CC2)cc1 ?
OUT: 100 to 1000 nM

IN: Which IC50 value is on record for C#CCCC(=O)N1CCN(C(=O)ON2C(=O)CCC2=O)CC1 ?
OUT: > 10000 nM

* * *

targetOrSystem: FAAH (Mus musculus, UniProt O08914)
Sequence (O08914 whole entry): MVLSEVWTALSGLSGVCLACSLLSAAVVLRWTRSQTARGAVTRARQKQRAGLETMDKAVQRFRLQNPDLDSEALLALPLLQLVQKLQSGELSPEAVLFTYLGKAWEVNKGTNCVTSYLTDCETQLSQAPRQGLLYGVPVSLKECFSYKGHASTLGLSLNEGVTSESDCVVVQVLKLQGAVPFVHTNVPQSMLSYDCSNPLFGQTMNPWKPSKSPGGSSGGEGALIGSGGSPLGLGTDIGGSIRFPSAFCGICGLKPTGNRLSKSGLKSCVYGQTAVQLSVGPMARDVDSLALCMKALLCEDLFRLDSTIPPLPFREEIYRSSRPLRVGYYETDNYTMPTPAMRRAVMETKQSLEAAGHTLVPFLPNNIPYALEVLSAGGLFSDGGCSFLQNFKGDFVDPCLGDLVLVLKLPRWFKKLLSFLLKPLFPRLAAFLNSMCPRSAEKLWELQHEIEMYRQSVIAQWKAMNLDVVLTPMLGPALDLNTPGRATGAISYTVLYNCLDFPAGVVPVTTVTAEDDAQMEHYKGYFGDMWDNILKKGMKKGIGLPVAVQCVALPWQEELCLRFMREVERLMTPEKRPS
assayDetails: In vitro competitive ABPP, % inhibition at fixed concentration, FAAH
Type: biochemical
Parameters: from tissue
readoutKind: inhibition at 1 µM

IN: Which inhibition at 1 µM value is on record for O=C(ON1C(=O)CCC1=O)N1CCN(Cc2cccc(Cl)c2C(=O)N2CCOCC2)CC1 ?
OUT: < 25%

IN: Which inhibition at 1 µM value is on record for O=C(ON1C(=O)CCC1=O)N1CCN(Cc2ccc(N3CCOCC3)cc2C(F)(F)F)CC1 ?
OUT: < 25%

IN: Which inhibition at 1 µM value is on record for Cn1ncc2cc(C(c3ccc4c(cnn4C)c3)N3CCN(C(=O)ON4C(=O)CCC4=O)CC3)ccc21 ?
OUT: < 25%

IN: Which inhibition at 1 µM value is on record for O=C(ON1C(=O)CCC1=O)N1CCN(Cc2ccc(-c3cccc(F)c3)cn2)CC1 ?
OUT: < 25%

IN: Which inhibition at 1 µM value is on record for Cc1ccc(C(=O)N2CCCC2)c(CN2CCN(C(=O)ON3C(=O)CCC3=O)CC2)c1 ?
OUT: < 25%

IN: Which inhibition at 1 µM value is on record for CS(=O)(=O)N1CCN(c2cc(Cl)ccc2CN2CCN(C(=O)ON3C(=O)CCC3=O)CC2)CC1 ?
OUT: < 25%

IN: Which inhibition at 1 µM value is on record for Cc1cccc(-c2ccc(CN3CCN(C(=O)ON4C(=O)CCC4=O)CC3)nc2C)c1 ?
OUT: < 25%

IN: Which inhibition at 1 µM value is on record for O=C(ON1C(=O)CCC1=O)N1CCN(Cc2cc(Cl)ccc2C(=O)N2CCCC2)CC1 ?
OUT: < 25%

* * *

I'd be grateful if you could share measured IC50 for these entries.
targetOrSystem: ABHD6 (Mus musculus, UniProt Q8R2Y0)
Sequence (Q8R2Y0 whole entry): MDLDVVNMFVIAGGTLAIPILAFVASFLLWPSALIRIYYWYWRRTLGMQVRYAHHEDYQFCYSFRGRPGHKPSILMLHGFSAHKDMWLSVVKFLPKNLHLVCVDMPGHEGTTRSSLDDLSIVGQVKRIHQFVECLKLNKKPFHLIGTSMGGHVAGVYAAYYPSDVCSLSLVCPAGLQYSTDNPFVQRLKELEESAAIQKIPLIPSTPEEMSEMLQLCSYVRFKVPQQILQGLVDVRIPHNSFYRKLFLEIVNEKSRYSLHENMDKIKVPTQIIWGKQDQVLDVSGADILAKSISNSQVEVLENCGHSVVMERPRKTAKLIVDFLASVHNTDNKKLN
assayDetails: In vitro competitive activity-based protein profiling (FP-Rh), mouse ABHD6
Type: biochemical
Parameters: from tissue; host or cells: mouse brain membrane fraction
conditions: Table 1, mouse proteome, 30 min preincubation at 37° C.

IN: Write down the reported IC50 of O=C(ON1C(=O)CCC1=O)N1CCN(Cc2ccc(Br)cc2Oc2ccccc2)CC1 [Example 37] , test system: ABHD6 (Mus musculus, UniProt Q8R2Y0).
OUT: 100 to 1000 nM

IN: Write down the reported IC50 of O=C(ON1C(=O)CCC1=O)N1CCC1 [Example 30] , test system: ABHD6 (Mus musculus, UniProt Q8R2Y0).
OUT: > 10000 nM

IN: Write down the reported IC50 of O=C(ON1C(=O)CCC1=O)N1CCN(C(c2ccc(Br)cc2)c2ccc(Br)cc2)CC1 [Example 3] , test system: ABHD6 (Mus musculus, UniProt Q8R2Y0).
OUT: 100 to 1000 nM

IN: Write down the reported IC50 of Cc1cc(N2CCN(C(=O)ON3C(=O)CCC3=O)CC2)c2ccccc2n1 [Example 18] , test system: ABHD6 (Mus musculus, UniProt Q8R2Y0).
OUT: 1000 to 10000 nM

IN: Write down the reported IC50 of COc1ccc(N2CCN(C(=O)ON3C(=O)c4ccccc4C3=O)CC2)cc1 [Example 34] , test system: ABHD6 (Mus musculus, UniProt Q8R2Y0).
OUT: < 100 nM

IN: Write down the reported IC50 of CN(C)C(=O)ON1C(=O)CCC1=O [Example 57] , test system: ABHD6 (Mus musculus, UniProt Q8R2Y0).
OUT: > 10000 nM

IN: Write down the reported IC50 of COc1ccc(N2CCN(C(=O)ON3C(=O)CC(c4ccccc4)C3=O)CC2)cc1 (stereo not drawn) [Example 54] , test system: ABHD6 (Mus musculus, UniProt Q8R2Y0).
OUT: < 100 nM

IN: Write down the reported IC50 of CC(C)C1NC(=O)N(OC(=O)N2CCN(C(c3ccc(Cl)cc3)c3ccc(Cl)cc3)CC2)C1=O (stereo not drawn) [Example 47] , test system: ABHD6 (Mus musculus, UniProt Q8R2Y0).
OUT: 100 to 1000 nM

IN: Write down the reported IC50 of CN(C)C(=O)ON1C(=O)CC(c2ccccc2)C1=O (stereo not drawn) [Example 59] , test system: ABHD6 (Mus musculus, UniProt Q8R2Y0).
OUT: > 10000 nM

* * *

targetOrSystem: MAGL (Mus musculus, UniProt O35678)
Sequence (O35678 whole entry): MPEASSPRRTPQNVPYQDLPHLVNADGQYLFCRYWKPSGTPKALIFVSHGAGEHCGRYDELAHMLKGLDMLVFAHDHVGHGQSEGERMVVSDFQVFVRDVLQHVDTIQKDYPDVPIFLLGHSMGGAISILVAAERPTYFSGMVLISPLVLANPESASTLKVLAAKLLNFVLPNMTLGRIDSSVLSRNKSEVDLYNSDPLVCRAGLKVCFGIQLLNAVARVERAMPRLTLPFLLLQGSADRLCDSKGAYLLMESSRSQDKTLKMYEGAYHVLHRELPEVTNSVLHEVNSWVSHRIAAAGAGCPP
assayDetails: In vitro competitive activity-based protein profiling (FP-Rh), mouse MAGL
Assay type: biochemical
Parameters: from tissue; host or cells: mouse brain membrane fraction
conditions: Table 2, mouse proteome, 30 min preincubation at 37° C.
I'd be grateful if you could share measured IC50 for these entries.

IN: Which IC50 value is on record for O=C(ON1C(=O)CCC1=O)N1CCN(Cc2ccc(Cl)cc2)CC1 ?
OUT: 100 to 1000 nM

IN: Which IC50 value is on record for O=C(ON1C(=O)CCC1=O)N1CCN(Cc2cccc(Cl)c2N2CCOCC2)CC1 ?
OUT: 100 to 1000 nM

IN: Which IC50 value is on record for CC(C)c1cc(-c2ccccc2)ccc1CN1CCN(C(=O)ON2C(=O)CCC2=O)CC1 ?
OUT: 100 to 1000 nM

IN: Which IC50 value is on record for O=C(ON1C(=O)CCC1=O)N1CCN(Cc2ccc(Cl)cc2N2CC3CCC(C2)O3)CC1 ?
OUT: < 100 nM

IN: Which IC50 value is on record for O=C(ON1C(=O)CCC1=O)N1CCN(Cc2ccc(C(F)(F)F)cc2N2CCCC2)CC1 ?
OUT: < 100 nM

IN: Which IC50 value is on record for Cc1nc(N2CCCCC2)sc1CN1CCN(C(=O)ON2C(=O)CCC2=O)CC1 ?
OUT: 1000 to 10000 nM

IN: Which IC50 value is on record for O=C(ON1C(=O)CCC1=O)N1CCN(Cc2cccc(F)c2N2CCCC2)CC1 ?
OUT: < 100 nM

IN: Which IC50 value is on record for O=C(ON1C(=O)CCC1=O)N1CCN(Cc2cccc(N3CCOCC3)c2)CC1 ?
OUT: 100 to 1000 nM

IN: Which IC50 value is on record for O=C(ON1C(=O)CCC1=O)N1CCN(Cc2cc(Cl)cc(N3CCCCC3)c2)CC1 ?
OUT: < 100 nM

IN: Which IC50 value is on record for O=C(ON1C(=O)CCC1=O)N1CCN(Cc2ccc(N3CCOCC3)c(Cl)c2)CC1 ?
OUT: 1000 to 10000 nM

IN: Which IC50 value is on record for O=C(ON1C(=O)CCC1=O)N1CCN(Cc2ccc(N3CCOCC3)cc2F)CC1 ?
OUT: 1000 to 10000 nM

IN: Which IC50 value is on record for O=C(ON1C(=O)CCC1=O)N1CCN(Cc2ccc(N3CCCC3)cc2OC(F)(F)F)CC1 ?
OUT: 100 to 1000 nM

IN: Which IC50 value is on record for O=C(ON1C(=O)CCC1=O)N1CCN(Cc2cc(Cl)ccc2N2CCOCC2)CC1 ?
OUT: 100 to 1000 nM

IN: Which IC50 value is on record for O=C(ON1C(=O)CCC1=O)N1CCN(Cc2ccc(Br)cc2N2CCOCC2)CC1 ?
OUT: < 100 nM

IN: Which IC50 value is on record for CC(=O)NC1CCN(c2cc(Cl)ccc2CN2CCN(C(=O)ON3C(=O)CCC3=O)CC2)C1 (centres unmarked) ?
OUT: < 100 nM

IN: Which IC50 value is on record for O=C(ON1C(=O)CCC1=O)N1CCN(Cc2ccc(-n3cccn3)c(F)c2)CC1 ?
OUT: 1000 to 10000 nM

IN: Which IC50 value is on record for O=C(ON1C(=O)CCC1=O)N1CCN(Cc2ccc(Cl)cc2N2CCCCC2)CC1 ?
OUT: < 100 nM
